test system: Ctenocephalides felis; experiment: Ctenocephalides felis oral test (CTECFE); type: in vivo; settings: 100 ppm in citrated cattle blood, after two days
We begin with a simple list: items and their reported activity (kill in %).
parameter: activity (kill in %)

CC1C(=CSc2ccccc2)C(=Nc2ccc(F)cc2)c2ccccc21 (mixture of isomers) = 100%
Cc1ccc(N=C2C(=CSc3ccc(F)cc3)C(C)c3cc(F)ccc32)cc1C (mixture of isomers) = 90%
Cc1ccc(N=C2C(=CSc3ccc(Cl)cc3)CCc3ccccc32)cc1 = 100%
